List of melting point values.

[
  {
    "compound": "CCc1cc(C2(c3cccc(-c4cccnc4)c3)N=C(N)N(C)C2=O)cc(C)n1 (stereo not shown)",
    "melting point": "135 to 139 °C"
  },
  {
    "compound": "CCc1cc(C2(c3cccc(-c4cc(F)ccc4F)c3)N=C(N)N(C)C2=O)cc(CC)n1 (stereo not shown)",
    "melting point": "107 to 112 °C"
  },
  {
    "compound": "CN1C(=O)C(c2ccncc2)(c2cccc(-c3cccc(O)c3)c2)N=C1N (stereo not shown)",
    "melting point": "263 to 265 °C"
  },
  {
    "compound": "Cc1cc(C2(c3cccc(-c4cccnc4)c3)N=C(N)N(C)C2=O)cc(C)n1 (stereo not shown)",
    "melting point": "176 to 180 °C"
  }
]

###

List of melting point values.

[
  {
    "compound": "CN1C(=O)C(c2ccncc2)(c2cccc(-c3cccc(C(N)=O)c3)c2)N=C1N (stereo not drawn)",
    "melting point": "188 to 190 °C"
  },
  {
    "compound": "CCc1cc(C2(c3ccc(F)c(-c4cnccc4F)c3)N=C(N)N(C)C2=O)cc(CC)n1 (stereo not drawn)",
    "melting point": "92 to 100 °C"
  },
  {
    "compound": "CCc1cc(C2(c3cccc(-c4cccnc4)c3)N=C(N)N(C)C2=O)ccn1 (stereo not drawn)",
    "melting point": "217 to 219 °C"
  },
  {
    "compound": "CCc1cc(C2(c3cccc(-c4cc(F)ccc4F)c3)N=C(N)N(C)C2=O)ccn1 (stereo not drawn)",
    "melting point": "188 to 192 °C"
  },
  {
    "compound": "COc1cncc(-c2cccc(C3(c4ccncc4)N=C(N)N(C)C3=O)c2)c1 (stereo not drawn)",
    "melting point": "198 to 200 °C"
  },
  {
    "compound": "CCc1cc(C2(c3cccc(-c4cnccn4)c3)N=C(N)N(C)C2=O)ccn1 (stereo not drawn)",
    "melting point": "138 to 140 °C"
  },
  {
    "compound": "CN1C(=O)C(c2ccncc2)(c2cccc(-c3cc(C#N)ccc3F)c2)N=C1N (stereo not drawn)",
    "melting point": "213 to 215 °C"
  },
  {
    "compound": "CN1C(=O)C(c2ccncc2)(c2cccc(-c3cccc(C(F)(F)F)c3)c2)N=C1N (stereo not drawn)",
    "melting point": "234 °C"
  },
  {
    "compound": "CCCOc1cccc(C2(c3ccncc3)N=C(N)N(C)C2=O)c1 (stereo not drawn)",
    "melting point": "173 to 175 °C"
  }
]

###

- tested target: human BACE1 (Homo sapiens, UniProt P56817)
- Sequence (P56817 46-501): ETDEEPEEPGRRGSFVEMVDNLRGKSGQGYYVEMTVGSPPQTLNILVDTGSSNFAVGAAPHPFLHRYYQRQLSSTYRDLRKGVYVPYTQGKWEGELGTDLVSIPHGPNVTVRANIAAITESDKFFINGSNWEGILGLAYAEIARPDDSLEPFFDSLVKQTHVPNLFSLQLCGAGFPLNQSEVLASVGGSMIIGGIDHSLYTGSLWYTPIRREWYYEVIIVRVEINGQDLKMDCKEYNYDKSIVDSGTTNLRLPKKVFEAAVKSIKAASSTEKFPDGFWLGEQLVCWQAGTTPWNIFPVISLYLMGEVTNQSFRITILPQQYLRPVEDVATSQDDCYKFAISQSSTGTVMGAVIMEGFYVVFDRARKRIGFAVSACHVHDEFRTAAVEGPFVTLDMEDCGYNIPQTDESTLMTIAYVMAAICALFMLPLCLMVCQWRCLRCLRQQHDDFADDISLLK
- assay method text: Fluorescent kinetic assay, BACE-1 (Example 114)
- Format: biochemical
quantity measured: IC50

[
  {
    "compound": "CC(C)c1cc(C2(c3cccc(-c4cncnc4)c3)N=C(N)N(C)C2=O)ccn1 (stereo not drawn) [Example 87]",
    "value observed": "10 to 100 nM"
  },
  {
    "compound": "Cc1cc(C2(c3cccc(-c4cccnc4)c3)N=C(N)N(C)C2=O)ccn1 (stereo not drawn) [Example 60]",
    "value observed": "10 to 100 nM"
  },
  {
    "compound": "COc1ccc(F)cc1-c1cccc(C2(c3ccncc3)N=C(N)N(C)C2=O)c1 (stereo not drawn) [Example 39]",
    "value observed": "10 to 100 nM"
  },
  {
    "compound": "CN1C(=O)C(c2cccc(-c3cccnc3F)c2)(c2ccncc2F)N=C1N (stereo not drawn) [Example 58]",
    "value observed": "10 to 100 nM"
  },
  {
    "compound": "CC(=O)c1cccc(-c2cccc(C3(c4ccncc4)N=C(N)N(C)C3=O)c2)c1 (stereo not drawn) [Example 38]",
    "value observed": "110 to 1000 nM"
  },
  {
    "compound": "Cc1cc(C2(c3cccc(-c4cnccn4)c3)N=C(N)N(C)C2=O)ccn1 (stereo not drawn) [Example 66]",
    "value observed": "10 to 100 nM"
  },
  {
    "compound": "Cc1cc(C2(c3cccc(-c4cc(F)ccc4F)c3)N=C(N)N(C)C2=O)ccn1 (stereo not drawn) [Example 62]",
    "value observed": "10 to 100 nM"
  },
  {
    "compound": "CCc1cc(C2(c3cccc(-c4cncnc4)c3)N=C(N)N(C)C2=O)cc(CC)n1 (stereo not drawn) [Example 91]",
    "value observed": "10 to 100 nM"
  },
  {
    "compound": "CN1C(=O)C(c2ccncc2)(c2cccc(-c3cccc(C#N)c3)c2)N=C1N (stereo not drawn) [Example 55]",
    "value observed": "10 to 100 nM"
  },
  {
    "compound": "CN1C(=O)C(c2ccncc2)(c2cccc(-c3cc(C#N)ccc3F)c2)N=C1N (stereo not drawn) [Example 41]",
    "value observed": "10 to 100 nM"
  },
  {
    "compound": "CN1C(=O)C(c2ccncc2)(c2cccc(-c3cccc(O)c3)c2)N=C1N (stereo not drawn) [Example 35]",
    "value observed": "110 to 1000 nM"
  },
  {
    "compound": "Cc1cc(C2(c3cccc(-c4cc(F)ccc4F)c3)N=C(N)N(C)C2=O)cc(C)n1 (stereo not drawn) [Example 76]",
    "value observed": "110 to 1000 nM"
  },
  {
    "compound": "CN1C(=O)C(c2ccncc2)(c2cccc(-c3cc(F)cnc3Cl)c2)N=C1N (stereo not drawn) [Example 42]",
    "value observed": "110 to 1000 nM"
  },
  {
    "compound": "CN1C(=O)C(c2ccccc2)(c2ccncc2)N=C1N (stereo not drawn) [Example 23]",
    "value observed": "> 1000 nM"
  },
  {
    "compound": "CN1C(=O)C(c2ccncc2)(c2ccc(F)c(-c3cccnc3F)c2)N=C1N (stereo not drawn) [Example 59]",
    "value observed": "10 to 100 nM"
  },
  {
    "compound": "CCc1cc([C@@]2(c3cccc(-c4cncnc4)c3)N=C(N)N(C)C2=O)cc(CC)n1 [Example 103A]",
    "value observed": "> 1000 nM"
  },
  {
    "compound": "CCc1cc([C@]2(c3cccc(-c4cncnc4)c3)N=C(N)N(C)C2=O)cc(CC)n1 [Example 103B]",
    "value observed": "10 to 100 nM"
  },
  {
    "compound": "CN1C(=O)C(c2ccncc2)(c2cccc(-c3cccnc3F)c2)N=C1N (stereo not drawn) [Example 43]",
    "value observed": "10 to 100 nM"
  }
]

###

- tested target: human BACE1 (Homo sapiens, UniProt P56817)
- assay method text: Fluorescent kinetic assay, BACE-1 (Example 114)
- Format: biochemical
pIC50: −log10 of the molar value.

[
  {
    "compound": "CN1C(=O)C(c2ccncc2)(c2cccc(-c3cccc(CO)c3)c2)N=C1N (stereo not shown)",
    "tested target": "human BACE1 (Homo sapiens, UniProt P56817)",
    "pIC50": "6.00 to 6.96"
  },
  {
    "compound": "CN1C(=O)C(c2ccncc2)(c2cccc(-c3cccc(OC(F)(F)F)c3)c2)N=C1N (stereo not shown)",
    "tested target": "human BACE1 (Homo sapiens, UniProt P56817)",
    "pIC50": "6.00 to 6.96"
  },
  {
    "compound": "CN1C(=O)C(c2ccncc2)(c2cccc(-c3ccn(C)n3)c2)N=C1N (stereo not shown)",
    "tested target": "human BACE1 (Homo sapiens, UniProt P56817)",
    "pIC50": "6.00 to 6.96"
  },
  {
    "compound": "CN1C(=O)C(c2ccncc2)(c2cccc(-c3cc(F)cc(F)c3)c2)N=C1N (stereo not shown)",
    "tested target": "human BACE1 (Homo sapiens, UniProt P56817)",
    "pIC50": "7.00 to 8.00"
  }
]

###

# maps each entry to its pIC50
- tested target: human BACE1 (Homo sapiens, UniProt P56817)
- assay method text: Fluorescent kinetic assay, BACE-1 (Example 114)
- Assay type: biochemical
pIC50: −log10 of the molar value.
quantity measured: pIC50

[
  {
    "molecule": "CN1C(=O)C(c2ccncc2)(c2cccc(-c3ccc(C#N)s3)c2)N=C1N (stereo not shown)",
    "quantity measured": "pIC50",
    "value observed": "6.00 to 6.96"
  },
  {
    "molecule": "Cc1cc(C2(c3cccc(-c4cccnc4)c3)N=C(N)N(C)C2=O)cc(C)n1 (stereo not shown)",
    "quantity measured": "pIC50",
    "value observed": "6.00 to 6.96"
  },
  {
    "molecule": "CN1C(=O)C(c2ccncc2)(c2cccc(-c3cccc(C(N)=O)c3)c2)N=C1N (stereo not shown)",
    "quantity measured": "pIC50",
    "value observed": "6.00 to 6.96"
  },
  {
    "molecule": "Cc1cc(C2(c3cccc(-c4cncnc4)c3)N=C(N)N(C)C2=O)cc(C)n1 (stereo not shown)",
    "quantity measured": "pIC50",
    "value observed": "6.00 to 6.96"
  },
  {
    "molecule": "CCc1cc(C2(c3cccc(OCC4CC4)c3)N=C(N)N(C)C2=O)cc(CC)n1 (stereo not shown)",
    "quantity measured": "pIC50",
    "value observed": "6.00 to 6.96"
  },
  {
    "molecule": "COc1ncccc1-c1cccc(C2(c3ccncc3)N=C(N)N(C)C2=O)c1 (stereo not shown)",
    "quantity measured": "pIC50",
    "value observed": "6.00 to 6.96"
  },
  {
    "molecule": "CN1C(=O)C(c2ccncc2)(c2cccc(OCC3CC3)c2)N=C1N (stereo not shown)",
    "quantity measured": "pIC50",
    "value observed": "6.00 to 6.96"
  },
  {
    "molecule": "CCc1cc(C2(c3cccc(-c4cnccn4)c3)N=C(N)N(C)C2=O)ccn1 (stereo not shown)",
    "quantity measured": "pIC50",
    "value observed": "7.00 to 8.00"
  },
  {
    "molecule": "CN1C(=O)C(c2ccncc2)(c2cccc(-c3cc[nH]n3)c2)N=C1N (stereo not shown)",
    "quantity measured": "pIC50",
    "value observed": "< 6.00"
  },
  {
    "molecule": "CN1C(=O)C(c2ccncc2)(c2cccc(-c3cccc(C(F)(F)F)c3)c2)N=C1N (stereo not shown)",
    "quantity measured": "pIC50",
    "value observed": "6.00 to 6.96"
  },
  {
    "molecule": "COc1cncc(-c2cccc(C3(c4ccncc4)N=C(N)N(C)C3=O)c2)c1 (stereo not shown)",
    "quantity measured": "pIC50",
    "value observed": "7.00 to 8.00"
  },
  {
    "molecule": "CN1C(=O)C(c2ccncc2)(c2cccc(-c3cccc(F)c3F)c2)N=C1N (stereo not shown)",
    "quantity measured": "pIC50",
    "value observed": "7.00 to 8.00"
  },
  {
    "molecule": "CCc1cc(C2(c3cccc(-c4cncnc4)c3)N=C(N)N(C)C2=O)cc(C)n1 (stereo not shown)",
    "quantity measured": "pIC50",
    "value observed": "6.00 to 6.96"
  }
]
